Ref: PubChem BioAssay AID1418

# tested target: Induced myeloid leukemia cell differentiation protein Mcl-1 (Homo sapiens) (UniProt Q07820)
# Sequence (Q07820 whole entry, looked up): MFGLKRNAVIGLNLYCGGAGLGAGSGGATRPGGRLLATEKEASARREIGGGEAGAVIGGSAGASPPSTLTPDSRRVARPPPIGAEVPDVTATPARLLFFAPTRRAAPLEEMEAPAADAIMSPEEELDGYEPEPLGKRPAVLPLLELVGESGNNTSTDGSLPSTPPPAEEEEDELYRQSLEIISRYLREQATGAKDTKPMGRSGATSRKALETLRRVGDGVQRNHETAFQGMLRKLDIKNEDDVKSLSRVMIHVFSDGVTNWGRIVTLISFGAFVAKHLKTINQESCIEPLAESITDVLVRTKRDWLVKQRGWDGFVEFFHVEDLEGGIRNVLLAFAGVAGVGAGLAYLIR
# protocol notes: blockers of Bid binding to Mcl-1 – biochemical, TR-FRET, dose response (AID 1418)
# stated conditions: Mcl-1/Bid peptide binding, TR-FRET (europium/Dy647), 2 hr
Activity calls are given as the source filed them. No rule for the calls is given here.
Provide the reported IC50 of each item.

compound	value observed
CCS(=O)(=O)NCc1ccc2c(c1)cc(C)n2C	> 54 µM (inactive)
O=C(COc1cccc2c1CCN(Cc1ccc(Br)cc1)C2=O)NCc1ccco1	> 54 µM (inactive)
Cc1ccc(-n2c(=O)c3cc4c(=O)n(-c5ccc(C)c(C)c5)c(=O)c4c(C(=O)c4ccc(C(=O)O)cc4)c3c2=O)cc1C	6.91 µM
O=C(Oc1ccc(Nc2ncnc3ccccc23)cc1)c1cccnc1	> 54 µM (inactive)
CCCCCCn1c(O)c(C=NCCN2CCOCC2)c(=O)[nH]c1=O	> 54 µM (inactive)
Fc1ccccc1NC(=S)N1CCN(Cc2ccc3c(c2)OCO3)CC1	> 54 µM (inactive)

Below are 4 compounds. Give each one its IC50.
1. Nc1ccccc1Nc1ccccc1
2. Clc1ccccc1-c1nc2ccccc2[nH]1
3. C#CCOCCOCCOCCNc1nc(N2CCN(C(=O)[C@H](Cc3cc4ccccc4[nH]3)n3cc([C@@H](N)CC(C)C)nn3)CC2)nc(N2CCN(C(=O)[C@H](Cc3cc4ccccc4[nH]3)n3cc([C@@H](N)CC(C)C)nn3)CC2)n1
4. CSc1cccc(NC(=O)CN(C)S(=O)(=O)c2ccccc2)c1

1: > 54 µM (inactive); 2: > 54 µM (inactive); 3: 24.2 µM; 4: > 54 µM (inactive)
